Provenance of the data: PubChem BioAssay

# assay remarks: small-molecule microarray binders of probe aEGFR, primary screen, biochemical, biotinylated probe, 635/667 nm fluorescence (AID 1097);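 also: probe is a biotinylated anti-EGFR antibody binding compounds printed on slides; score combines fluorescence near 667 nm and signal to noise of each spot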
# run conditions: higher = more signal
Quick list: composite z-score per entry.
Answer with a number only.

These recorded examples may help you get a feel for the data.
| molecule | data value |
| --- | --- |
| O=C1C2=CC[C@H]3C(=O)N(c4cccc(Oc5ccccc5)c4)C(=O)[C@H]3[C@H]2[C@H](O)[C@@H]2O[C@H]12 | -0.0219 |
| O=C1[C@H]2[C@H]3[C@H](O)[C@H](O)CC(=NOCc4ccccc4)[C@@H]3CC[C@H]2C(=O)N1Cc1ccc2c(c1)OCO2 | 0.0761 |
| O=C(NN=C1C[C@@H](O)[C@@H](O)[C@@H]2[C@@H]3C(=O)N(C4CCCCC4)C(=O)[C@@H]3CC[C@@H]12)OCc1ccccc1 | -0.0262 |
| CC(C)CON=C1[C@H]2CCn3c(=O)n(Cc4cc5c(cc4Cl)OCO5)c(=O)n3[C@H]2[C@H](O)[C@@H]2O[C@H]12 | -0.0139 |
| COC(=O)[C@H](C)NC(=O)CCC1CC(OC(=O)NCc2ccc3c(c2)OCO3)CC2(CCCC(COC(=O)NCC3CCCCC3)O2)O1 (some centres not stated) | -0.0139 |

[in] Give its composite z-score value. Item: `C=CC[C@@H]1C=C[C@H](ON=C2[C@H]3CCn4c(=O)n(-c5ccccc5)c(=O)n4[C@H]3[C@H](O)[C@@H]3O[C@H]23)[C@@H](CO)O1`
[out] 0.0434

[in] For the molecule shown here, `C[C@@H]1CC[C@H]2C(=O)O[C@@H](COc3ccc(C(C)(C)C)cc3)CN2[C@@H]1c1ccc(Br)cc1` , give the reported composite z-score.
[out] -0.0946
